Species: Mus musculus
Method Description: [3H]TdR uptake measured by spleen cell proliferation assay by adding compound dose of 100 ng/mL
Format: functional
Overview of recorded Incorporation for various compounds
Expressed in c.p.m., but write only the number.

Use the examples below as a reference point.
Compound | Output Unit | Incorporation
CCCCCCCCCCCCCC[C@@H](O)[C@@H](O)[C@H](CO[C@H]1O[C@@H](CO)[C@H](O)[C@H](O)[C@@H]1O)NC(=O)CCCCCCCCCCNC(=O)CCCCCNC(=O)CCCC[C@@H]1SC[C@@H]2NC(=O)N[C@@H]21 (stereo in doubt; form 1) | c.p.m. | 5463
CCCCCCCCCCCCCCC[C@@H](O)[C@H](CO[C@H]1O[C@@H](CO)[C@H](O)[C@H](O)[C@@H]1O)NC(=O)CCCCCCCCCCNC(=O)CCCCCNC(=O)CCCC[C@@H]1SC[C@@H]2NC(=O)N[C@@H]21 | c.p.m. | 14588

The recorded Incorporation for CCCCCCCCCCCCCCCC[C@H](CO[C@H]1O[C@@H](CO)[C@H](O)[C@H](O)[C@@H]1O)NC(=O)CCCCCCCCCCNC(=O)CCCCCNC(=O)CCCC[C@@H]1SC[C@@H]2NC(=O)N[C@@H]21 is 9427

get_value(item= CCCCCCCCCCCCCCCCCCCCCCCCCC(=O)N[C@@H](CO[C@H]1O[C@H](CO)[C@H](O)[C@H](O)[C@H]1O)[C@H](O)[C@H](O)CCCCCCCCCCCCCC , readout=Incorporation) returns 17636
